Reference source for all entries: patent US9561231B2

# target: second (BD2: amino acids E352-E168) bromodomain of BRD4 (Homo sapiens, UniProt O60885)
# Construct: protocol
# protocol.notes: TR-FRET bromodomain binding assay, BRD4 BD2
# cond: TR-FRET assay protocol (A-G, compound concentration range); Ki calculated from IC50, probe Kd and probe concentration; read-out: TR-FRET Binding Ki: BRD4 (BDII_E352-M457)
measured.attribute: pKi
In textbook form, pKi equals minus log to base ten of the concentration in mol/L.

Record excerpt, results attached:
> print(dat)
                                   molecule                                    target  measured.attribute  readout.value
1  Cn1cc(-c2cc(=O)n(C)nc2-c2ccccc2Oc2ccccc2)cn1  second (BD2: amino acids E352-E168) bromodomain of BRD4 (Homo sapiens, UniProt O60885)                 pKi           6.96
2  CN(C)C(=O)c1cc(F)cc(-c2cc(=O)n(C)nc2-c2ccccc2Oc2ccccc2)c1  second (BD2: amino acids E352-E168) bromodomain of BRD4 (Homo sapiens, UniProt O60885)                 pKi           5.14
3  Cn1cc(-c2cc(NS(C)(=O)=O)ccc2Oc2cc(F)cc(F)c2)ccc1=O  second (BD2: amino acids E352-E168) bromodomain of BRD4 (Homo sapiens, UniProt O60885)                 pKi           6.47
4  Cn1ccc(-c2cc(=O)n(C)nc2-c2ccccc2Oc2ccccc2)cc1=O  second (BD2: amino acids E352-E168) bromodomain of BRD4 (Homo sapiens, UniProt O60885)                 pKi           6.47
5  CNC(=O)c1cncc(-c2cc(=O)n(C)nc2-c2ccccc2Oc2ccccc2)c1  second (BD2: amino acids E352-E168) bromodomain of BRD4 (Homo sapiens, UniProt O60885)                 pKi           5.34

// query Look at this molecule and give its reported pKi. Cc1c(-c2cc(=O)n(C)nc2-c2ccccc2Oc2ccccc2)cnn1C
// result 5.71

// query Next up: Cn1nc(-c2ccccc2Oc2ccccc2)c(-c2ccc(C(O)C3CCCC3)cc2)cc1=O (stereo not drawn)
// result 5.98

// query Next up: Cn1cc(-c2cc(NC(=O)c3ccc[nH]3)ccc2Oc2ccccc2)ccc1=O
// result 6.59
